These entries and their values trace back to patent US20100311648A1.

target: human melanocortin-4 receptor (human, UniProt P32245 1-332); experiment: cell-based or functional assay
Sequence (P32245 whole entry): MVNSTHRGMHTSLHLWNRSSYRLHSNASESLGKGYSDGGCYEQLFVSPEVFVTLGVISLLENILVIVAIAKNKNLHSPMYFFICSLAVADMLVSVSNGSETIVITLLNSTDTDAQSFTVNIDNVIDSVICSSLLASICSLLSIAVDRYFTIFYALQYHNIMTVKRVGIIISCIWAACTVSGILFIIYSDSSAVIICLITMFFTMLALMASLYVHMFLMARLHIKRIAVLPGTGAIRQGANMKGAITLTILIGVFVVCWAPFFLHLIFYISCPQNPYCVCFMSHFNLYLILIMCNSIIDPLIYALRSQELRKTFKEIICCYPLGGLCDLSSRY
Positions of bridges follow the written chain, without caps; N, C: chain ends. Non-standard residues stand in square brackets, D forms with d. dPhe(2-CF3) = N[C@H](Cc1ccccc1C(F)(F)F)C(=O)O; dPhe(4-CN) = N#Cc1ccc(C[C@@H](N)C(=O)O)cc1; dPhe(3-Me) = Cc1cccc(C[C@@H](N)C(=O)O)c1; Orn = NCCC[C@H](N)C(=O)O
observable: EC50, cAMP, 10 ng/mL Doxycycline (nM)

For orientation, consider the following solved cases.
# binder, EC50, cAMP, 10 ng/mL Doxycycline / nM
measured = [
    ("XDQXRWK (N-terminal Ac; D-Arg 1; D-Phe(3,4-diF) 4; lactam Asp 2-Lys 7; C-terminal NH2, also called No. 78) [Ac-D-Arg-cyclo(Asp-Gln-D-Phe(3,4-diF)-Arg-Trp-Lys)-NH2]", 0.2),
    ("Ac-R[Orn]Q[dPhe(4-CN)]RWE-NH2 (lactam 2-7, also called No. 94) [Ac-Arg-cyclo(Orn-Gln-D-Phe(4-CN)-Arg-Trp-Glu)-NH2]", 0.09),
    ("Ac-RED[dPhe(4-CN)]RW[Orn]-NH2 (lactam 2-7; SMILES CC(=O)N[C@@H](CCCNC(=N)N)C(=O)N[C@H]1CCC(=O)NCCC[C@@H](C(N)=O)NC(=O)[C@H](Cc2c[nH]c3ccccc23)NC(=O)[C@H](CCCNC(=N)N)NC(=O)[C@@H](Cc2ccc(C#N)cc2)NC(=O)[C@H](CC(=O)O)NC1=O, also called No. 106) [Ac-Arg-cyclo(Glu-Asp-D-Phe(4-CN)-Arg-Trp-Orn)-NH2]", 113),
]

[P] Ac-R[Orn]N[dPhe(3-Me)]RWE-NH2 (lactam 2-7, also called No. 72) [Ac-Arg-cyclo(Orn-Asn-D-Phe(3-Me)-Arg-Trp-Glu)-NH2]
[Q] Ac-R[Orn]Q[dPhe(2-CF3)]RWE-NH2 (lactam 2-7, also called No. 115) [Ac-Arg-cyclo(Orn-Gln-D-Phe(2-CF3)-Arg-Trp-Glu)-NH2]
Exam item: Hi there, can you help? I need to know whether P or Q has lower measured EC50, cAMP, 10 ng/mL Doxycycline. Label of pick, please.
Marked response: Q
